- System: A498
- protocolNotes: NCI 60 human tumor cell line screen (SRB)
- Type: cell-based
- settings: A498 (Renal Cancer); 48 h
Reported Log10TGI50 is given for each of the following molecules.
Enter a number only.

Answered cases to consult:
C[C@]1(C(=O)[C@H](Cc2ccccc2)NC(=O)[C@H](COC(F)F)NC(=O)[C@H](COC(F)F)NC(=O)CN2CCOCC2)CO1    −7.03
Cc1ncc(C(=O)N[C@@H](COC(F)F)C(=O)N[C@@H](COC(F)F)C(=O)N[C@@H](Cc2ccccc2)C(=O)[C@@]2(C)CO2)s1    −6.38
C[C@]1(C(=O)[C@H](Cc2ccccc2)NC(=O)[C@H](Cc2ccccc2)NC(=O)[C@H](COC(F)F)NC(=O)CN2CCOCC2)CO1    −6.11

Now turn to the next molecule.
(Q) Please indicate Log10TGI50 recorded for `CC(C)C[C@H](NC(=O)[C@H](Cc1ccccc1)NC(=O)[C@H](COC(F)F)NC(=O)CN1CCOCC1)C(=O)[C@@]1(C)CO1`
(A) −7.03

----------
- System: MDA-MB-231/ATCC
- protocolNotes: NCI 60 human tumor cell line screen (SRB)
- Assay type: cell-based
- settings: MDA-MB-231/ATCC (Breast Cancer); 48 h
readout: Log10TGI50
Give the figure only, with no unit attached.

Below, 2 molecules whose answers are already recorded.
Cc1ncc(C(=O)N[C@@H](COC(F)F)C(=O)N[C@@H](COC(F)F)C(=O)N[C@@H](Cc2ccccc2)C(=O)[C@@]2(C)CO2)s1    −6.01
C[C@]1(C(=O)[C@H](Cc2ccccc2)NC(=O)[C@H](Cc2ccccc2)NC(=O)[C@H](COC(F)F)NC(=O)CN2CCOCC2)CO1    −6.27

(Q) Retrieve Log10TGI50 measured for `C[C@]1(C(=O)[C@H](Cc2ccccc2)NC(=O)[C@H](COC(F)F)NC(=O)[C@H](COC(F)F)NC(=O)CN2CCOCC2)CO1` and print it.
(A) −6.80

(Q) Give the value of Log10TGI50 reported for the following: `CC(C)C[C@H](NC(=O)[C@H](Cc1ccccc1)NC(=O)[C@H](COC(F)F)NC(=O)CN1CCOCC1)C(=O)[C@@]1(C)CO1`
(A) −6.80

----------
Documented Log10GI50 across a set of compounds
- Tested on: K-562
- protocolNotes: NCI 60 human tumor cell line screen (SRB)
- Type: cell-based
- settings: K-562 (Leukemia); 48 h
Reply with just the number.

Cc1ncc(C(=O)N[C@@H](COC(F)F)C(=O)N[C@@H](COC(F)F)C(=O)N[C@@H](Cc2ccccc2)C(=O)[C@@]2(C)CO2)s1    −6.50

(Q) Quickly give me recorded Log10GI50 for `CC(C)C[C@H](NC(=O)[C@H](Cc1ccccc1)NC(=O)[C@H](COC(F)F)NC(=O)CN1CCOCC1)C(=O)[C@@]1(C)CO1`
(A) −7.41

(Q) Please give measured Log10GI50 of the following entry: `C[C@]1(C(=O)[C@H](Cc2ccccc2)NC(=O)[C@H](Cc2ccccc2)NC(=O)[C@H](COC(F)F)NC(=O)CN2CCOCC2)CO1`
(A) −7.00

(Q) Entry `C[C@]1(C(=O)[C@H](Cc2ccccc2)NC(=O)[C@H](COC(F)F)NC(=O)[C@H](COC(F)F)NC(=O)CN2CCOCC2)CO1` needs its Log10GI50 filled in; supply it.
(A) −7.41
